PROCEDURE SUMMARY: Viability qHTS for spleen associated tyrosine kinase inhibitor (SYKi) drug resistant MV4-11 cells (AID 1963824); further: nearly all actives have a fitted effect of over 35% in size
TEST CONDITIONS: SYKi-resistant MV4-11 viability, CellTiter-Glo, 72 h; series mostly up to 45 µM
Results filed as inconclusive are left out. Active and inactive are the calls of the source. The call rests on the fitted dose curve; in most records, active means well fitted cell-killing curve with a large enough effect; inconclusive means small, poorly fitted or top-dose-only effect, or effect the other way; inactive means no such curve, though single readings can be large or run the other way.
I would appreciate it if you answered using one of these outcomes: 1 for active, 0 for inactive

Worked examples, 4 compounds total:
COMPOUND: CC(C)Oc1ccc(-c2cnc3c(-c4ccnc5ccccc45)cnn3c2)cc1
ANSWER LABEL: 1
--
COMPOUND: O=S(=O)(c1cccc2c(I)cccc12)N1CCCNCC1
ANSWER LABEL: 1
--
COMPOUND: CC(=O)O[C@@H]1[C@H](OC(C)=O)C[C@@]2(C)C(CC[C@@H](C)[C@]23Cc2c(O)cc4c(c2O3)CN([C@@H](CCC(=O)O)C(=O)O)C4=O)C1(C)C (some centres not stated)
ANSWER LABEL: 0
--
COMPOUND: CC(=O)N1CCC[C@H]1C(=O)N[C@@H](Cc1cnc[nH]1)C(=O)N[C@@H](CO)C(=O)N[C@@H](CS)C(=O)N[C@@H](CC(N)=O)C(N)=O
ANSWER LABEL: 0

# lookup: test call for "CC(C)(C)[C@H](NC(=O)c1ccc(N)c(Cl)c1)C(=O)N1CCC[C@H]1C(=O)N[C@H](C#N)CC(=O)O"
0

Hello, I am checking results. What call was entered for C[C@@H]1O[C@@H](O[C@H]2CC[C@@]3(C)C(CC[C@]4(C)C3CC=C3[C@@H]5CC(C)(C)CC[C@]5(C(=O)O[C@@H]5O[C@H](CO)[C@@H](O)[C@H](O)[C@H]5O)CC[C@]34C)[C@]2(C)CO)[C@H](O)[C@H](O[C@@H]2O[C@H](CO)[C@@H](O)[C@H](O)[C@H]2O)[C@H]1O (some centres not stated) ?
1

For this compound, state the assay outcome: COC(=O)CC1CC(c2ccc(O)cc2)=NO1 (configuration not stated)
0

# outcome recorded in this test, key = "Cc1c(C(=O)NN2CCCCC2)nn(-c2ccc(Cl)cc2Cl)c1-c1ccc(Cl)cc1"
1

Recorded test outcome, item "CCCCC1CCN(CCCN2C(=O)CCc3ccccc32)CC1"
1

In this assay, the call recorded for C=C1CC2[C@@]3(C)C=CC(=O)C(C)(C)C3=C(O)C(=O)[C@@]2(C)C2(C(=O)OC)C(=O)C(C)OC(=O)[C@@]12C (some centres not stated) was what?
1

Give the logged outcome of this assay for the following compound: "Nc1ncnc2c1ncn2CCNCCCCCO"
0

Please let me know the test result on file for "Cc1ccc(C(=O)/C=C/c2ccccc2)s1" .
1
